The entries below come with measured Population Fragmented Nuclei (%) values attached.
test system: HEK-293T; assay: Multiplex assay against HEK293T; format: toxicity, cell-based; settings: human, 48 h, 10 µM, compound concentration 10 uM, replicate 2
PROPERTY_LABEL: Population Fragmented Nuclei (%)

COMPOUND	TARGET_OF_ASSAY	UNIT_ABBREVIATION	OBSERVED_RESULT
Cl.Clc1ccc2nsnc2c1NC1=NCCN1 [TIZANIDINE HYDROCHLORIDE]	HEK-293T	%	13
CN1CCN(c2nc3cc(C(F)(F)F)ccc3n3cccc23)CC1.O=C(O)/C=C\C(=O)O.O=C(O)/C=C\C(=O)O	HEK-293T	%	11
CN1CCN2c3ncccc3Cc3ccccc3C2C1 (configuration not stated)	HEK-293T	%	11
COc1c(C)cc(NC(=O)c2nn(Cc3ccc(F)cc3)c3c2CN(C(=O)c2ccc[nH]2)C[C@]3(C)C(N)=O)cc1C	HEK-293T	%	9
CC(=O)O[C@H]1C(=O)[C@@]2(C)[C@H]([C@H](OC(=O)c3ccccc3)[C@]3(O)C[C@H](OC(=O)[C@H](O)[C@@H](NC(=O)c4ccccc4)c4ccccc4)C(C)=C1C3(C)C)[C@]1(OC(C)=O)CO[C@@H]1C[C@@H]2O	HEK-293T	%	13
Cc1ccc(F)cc1C(=O)Nc1ccc(C(=O)N2Cc3cccn3Cc3ccccc32)c(Cl)c1	HEK-293T	%	11
CSc1ccccc1N1CCN(CCCCCC(=O)NC2CCCc3ccccc32)CC1.Cl (configuration not stated)	HEK-293T	%	13

* * *

test system: HEK-293T; assay: Multiplex assay against HEK293T; type: toxicity, cell-based; conditions: human, 48 h, 1 µM, compound concentration 1 uM, replicate 1
Hi, to clarify the labels: 1.0 covers Total Cell Count from 900 upward, 0.0 covers anything below 900.

SUBSTANCE_SMILES	LABEL
Cc1ccc(/C(=C\CN2CCCC2)c2ccccn2)cc1	1.0
CC[C@H]1OC(=O)[C@H](C)[C@@H](O[C@H]2C[C@@](C)(OC)[C@@H](O)[C@H](C)O2)[C@H](C)[C@@H](O[C@@H]2O[C@H](C)C[C@H](N(C)C)[C@H]2O)[C@@]2(C)CC(C)=C(O2)[C@H](C)[C@@H](O)[C@]1(C)O	0.0
Cc1ccc(-c2ccc(F)cc2COc2ccc(CCC(=O)O)cc2)cc1	1.0
CN(C)c1ccnc2sc3c(=O)n(N4CCCCCC4)cnc3c12	0.0
O=C(NCC(=O)N1CC[C@H](N[C@H]2CC[C@@](O)(c3ccc(-c4ncccn4)cn3)CC2)C1)c1cccc(C(F)(F)F)c1	1.0
O=C(O)Cc1ccccc1Nc1c(Cl)cccc1Cl	0.0

* * *

Catalogue of compounds with associated Population Hoechst High Intensity Objects (%)
test system: HEK-293T; assay: Multiplex assay against HEK293T; type: toxicity, cell-based; conditions: human, 24 h, 10 µM, compound concentration 10 uM, replicate 2
PROPERTY_LABEL: Population Hoechst High Intensity Objects (%)

                           substance_smiles  observed_result
0  COc1cc(NC(=O)CCN2CCC(OC(=O)Nc3ccccc3-c3ccccc3)CC2)c(Cl)cc1CNC[C@H](O)c1ccc(O)c2[nH]c(=O)ccc12                7
1   CN(C)c1ccnc2sc3c(=O)n(N4CCCCCC4)cnc3c12               13
2  CC(C)(C)c1ccc(S(=O)(=O)Nc2ccc(Cl)cc2C(=O)c2cc[n+]([O-])cc2)cc1                5
3            O=C(O)Cc1ccccc1Nc1c(Cl)cccc1Cl                9
4  O=C(O)c1cc2ccccc2c(Cc2c(O)c(C(=O)O)cc3ccccc23)c1O                7
5  COc1c(C)cc(NC(=O)c2nn(Cc3ccc(F)cc3)c3c2CN(C(=O)c2ccc[nH]2)C[C@]3(C)C(N)=O)cc1C               15
6  CN(C)CCCc1cc(C(=O)Nc2ccc(-c3ccncc3)cc2)ccc1O.Cl.Cl               15
7      CC(=O)NCCc1c(Cc2ccccc2)[nH]c2ccccc12               11
8  COc1ccccc1N1CCN(CCCCNC(=O)c2ccc3ccccc3c2)CC1.Cl               17
